These measurements were taken from ChEMBL document CHEMBL6103596.

measurement.description: Photophysical property of the compound assessed as fluorescence quantum yield
Type: physicochemical
I'd be grateful if you could share measured Activity for these entries.
Answers are plain numbers.

CCOCc1nc2c(NC(=O)OCC3=C4C(C)=CC(/C=C/c5ccc(OCCOCCOCCOC)cc5)=[N+]4[B-](F)(F)n4c(/C=C/c5ccc(OCCOCCOCCOC)cc5)cc(C)c43)nc3ccccc3c2n1CC(C)(C)O = 0.482
COCCOCCOCCOc1ccc(/C=C/C2=[N+]3C(=C(CO)c4c(C)cc(/C=C/c5ccc(OCCOCCOCCOC)cc5)n4[B-]3(F)F)C(C)=C2)cc1 = 0.554
CCOCc1nc2c(NC(=O)OCC3=C4C(C)=CC(C)=[N+]4[B-](F)(F)n4c(C)cc(C)c43)nc3ccccc3c2n1CC(C)(C)O = 0.809
CC1=CC(C)=[N+]2C1=C(CO)c1c(C)cc(C)n1[B-]2(F)F = 0.835

Field: next compound
Req: Give the reported value of Activity for this record: CCOCc1nc2c(NC(=O)OCC3=C4C(C)=CC(/C=C/c5ccc(OCCOCCOCCOC)cc5)=[N+]4[B-](C)(C)n4c(/C=C/c5ccc(OCCOCCOCCOC)cc5)cc(C)c43)nc3ccccc3c2n1CC(C)(C)O
Resp: 0.411

###

measurement.description: Dark toxicity in human A549 cells assessed as cell viability at 10 uM under dark condition and measured after 72 hrs by CCK-8 method relative to control
Type: cell-based
experimental.setup: read-out: Activity
readout.label: viability at 72 h, 10 µM (%)
Give bare numbers, in %.

CCOCc1nc2c(NC(=O)OCC3=C4C(C)=CC(/C=C/c5ccc(OCCOCCOCCOC)cc5)=[N+]4[B-](C)(C)n4c(/C=C/c5ccc(OCCOCCOCCOC)cc5)cc(C)c43)nc3ccccc3c2n1CC(C)(C)O = 2
CCOCc1nc2c(N)nc3ccccc3c2n1CC(C)(C)O = 19

Field: next compound
Req: Give the reported value of viability at 72 h, 10 µM for this record: CCOCc1nc2c(NC(=O)OCC3=C4C(C)=CC(C)=[N+]4[B-](F)(F)n4c(C)cc(C)c43)nc3ccccc3c2n1CC(C)(C)O
Resp: 19
